# ASSAY REMARKS: Half life in rat
# Format: ADME
# TEST PARAMETERS: in vivo
METRIC NAME: half-life (h)
Give the number; h is assumed, so skip it.

What value of half-life has been reported for the following compound? COc1ccc(S(=O)(=O)n2cc(CCC(=O)O)c3cc(OC)ccc32)cc1 [INDEGLITAZAR] 1.4

---

# TARGET UNDER TEST: Peroxisome proliferator-activated receptor alpha (Homo sapiens, UniProt Q07869)
# Sequence (Q07869 whole entry): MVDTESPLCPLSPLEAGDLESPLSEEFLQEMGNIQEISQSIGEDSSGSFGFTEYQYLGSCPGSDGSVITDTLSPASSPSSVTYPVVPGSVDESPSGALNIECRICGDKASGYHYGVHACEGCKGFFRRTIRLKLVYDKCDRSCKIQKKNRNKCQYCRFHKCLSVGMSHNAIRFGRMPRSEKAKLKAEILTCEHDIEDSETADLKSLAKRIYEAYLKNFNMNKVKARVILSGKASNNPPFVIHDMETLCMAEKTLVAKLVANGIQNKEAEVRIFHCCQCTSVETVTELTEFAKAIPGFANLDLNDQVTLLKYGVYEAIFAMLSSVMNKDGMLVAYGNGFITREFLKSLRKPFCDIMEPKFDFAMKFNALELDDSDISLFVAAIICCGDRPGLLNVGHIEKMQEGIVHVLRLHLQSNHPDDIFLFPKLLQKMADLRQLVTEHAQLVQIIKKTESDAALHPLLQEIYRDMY
# ASSAY REMARKS: Agonist activity at PPARalpha (unknown origin)
We begin with a simple list: items and their reported EC50.
The reply should contain only the number, in nM.

Answered examples (3):
compound="COc1ccc(S(=O)(=O)n2cc(CCC(=O)O)c3cc(OC)ccc32)cc1 [INDEGLITAZAR]" value_observed=1150
compound=[2H]C([2H])(Cc1cn(S(=O)(=O)c2ccc(OC)cc2)c2ccc(OC)cc12)C(=O)O value_observed=980
compound=[2H]C([2H])(Cc1cn(S(=O)(=O)c2ccc(OC(F)(F)F)cc2)c2ccc(OC)cc12)C(=O)O value_observed=1260

// moving on: another record for EC50
Recorded EC50 of `[2H]C([2H])(Cc1cn(S(=O)(=O)c2ccc(OC)cc2)c2ccc(C3CC3)cc12)C(=O)O` , please. 2520

---

# ASSAY REMARKS: Metabolic stability in rat liver microsomes assessed as half life preincubated for 5 mins followed by NADPH addition and measured upto 60 mins by LC-MS analysis
# Type: ADME, Microsome
# TEST PARAMETERS: time < 65 min
Parameter: half-life. Scope: all listed entries.
Please state the value followed by its unit.

smiles_record=[2H]C([2H])(Cc1cn(S(=O)(=O)c2ccc(OC(F)(F)F)cc2)c2ccc(OC)cc12)C(=O)O value_observed="1.23 h"

Reported half-life for `[2H]C([2H])(Cc1cn(S(=O)(=O)c2ccc(OC)cc2)c2ccc(C3CC3)cc12)C(=O)O` : what is it? 1.14 h

Requested read-out: half-life. Entry: `[2H]C([2H])(Cc1cn(S(=O)(=O)c2ccc3c(c2)CCO3)c2ccc(OC)cc12)C(=O)O` 1.12 h
